Where do these numbers come from? They come from patent US6288042.

TARGET_OR_SYSTEM: HIV-1 integrase wild-type (IN1-288) (Human immunodeficiency virus 1, UniProt P04585 P04585:1148-1435)
ASSAY_SUMMARY: inhibition; 3'-processing column as printed; strand transfer column 0.090
EXPERIMENTAL_SETUP: G4
OBSERVATION_TYPE: pIC50
Scale: pIC50 equals -log10([C]), with [C] in mol/L.

For reference, reported pIC50 for GTGGTGGGTGGGTGGGT (structured_DNA, 5-bromo dU at 13; PS at first and last linkage [n positions 13 = modified dU]) [T30570] stands at 7.15
